Attribution: ChEMBL document CHEMBL3988442

System: Mycobacterium tuberculosis
PROTOCOL_DESCRIPTION: Cornell - Phenotypic assay to identify agents that inhibit growth of Mycobacterium tuberculosis
Assay type: functional
Parameters: scale not given: direction of the effect not stated beside the values
ASSAY_CONDITIONS: 10 mM as filed; unlikely as a test dose
The campaign covered roughly 53,000 compounds. About 900 (1.7%) showed an effect of 50% or more. Only a selection was taken, and strong results are over-represented in it overall.

| COMPOUND | Percent Effect / % |
| --- | --- |
| CN1CCOC(CNCc2coc(-c3cccc(Cl)c3)n2)C1 (configuration not stated) | 12.33 |
| O=C(NC1CCC1)C1=NOC2(CCN(Cc3ccccc3)C2)C1 (configuration not stated) | -9.005 |
| CCn1ncc(CN2CCC(c3ncc(Cl)cc3S(C)(=O)=O)CC2)c1C | 50.49 |
| CS(=O)(=O)N1CCC(CNC(=O)c2cnccn2)CC1 | -29.61 |
| CC(=O)N[C@H]1CN(S(=O)(=O)N(C)Cc2ccccc2)C[C@@H]1C1CC1 | 14.84 |
| FC(F)(F)c1cc(C2CCN(c3cnccn3)CC2)n2ccnc2n1 | 47.21 |
| CNc1[nH]nc(N)c1NC(=O)c1ccccc1 | 107.3 |
| O=C(NC1CCCN(c2ccccn2)C1)C1(c2ccccc2F)CC1 (configuration not stated) | -27.34 |
| CNc1[nH]nc(N)c1C(=O)Nc1ccccc1 | -18.4 |
| FC(F)(F)c1cc(C2CCCN(c3cnccn3)C2)n2ccnc2n1 (configuration not stated) | 5.193 |
| Cc1cnn(CCNCc2ccc(OCc3ccncc3)cc2)c1 | -5.152 |
| CCn1cc(CN2CCC(c3ncc(Cl)cc3S(C)(=O)=O)CC2)c(C)n1 | 37.62 |

* * *

Tested on: Mycobacterium tuberculosis
PROTOCOL_DESCRIPTION: Cornell - Phenotypic assay to identify agents that inhibit growth of Mycobacterium tuberculosis
Type: functional
Set-up: scale not given: direction of the effect not stated beside the values
ASSAY_CONDITIONS: 10 mM as filed; unlikely as a test dose
In all, about 53,000 compounds went through this assay and about 900 (1.7%) showed an effect of 50% or more. The full list was thinned out, with strong results kept by preference.
Known Percent Effect of a selection of molecules
READOUT_LABEL: Percent Effect (%)

| MOLECULE | ASSAY_VALUE |
| --- | --- |
| CSCCC1c2nc[nH]c2CCN1Cc1cc(Cl)ccc1O (configuration not stated) | 102.1 |
| CSCCC1c2nc[nH]c2CCN1Cc1ccccc1C#N (configuration not stated) | 19.15 |
| CSCCC1c2nc[nH]c2CCN1Cc1ccccc1C(F)(F)F (configuration not stated) | 2.921 |
| Cc1ncsc1C(=O)Nc1ccccn1 | 6.488 |
| CN(Cc1noc(-c2ccccc2)n1)C(=O)CSc1nnc(N)s1 | -22.54 |
| CCOCCCn1c(NC(=O)c2cnn(C)c2)nc2ccccc21 | 87.33 |
| NC(=O)C1CCCN1C(=O)c1cc(C2CC2)nc2ccc(F)cc12 (configuration not stated) | -27.79 |
| CCOCCCn1c(NC(=O)c2ccc(C)nc2)nc2ccccc21 | 49.04 |
| CCOC(=O)CNC(=O)c1scnc1C | 8.54 |
| Cc1cc(NC(=O)CN2CCCC2c2noc(C3CC3)n2)n(C)n1 (configuration not stated) | -35.39 |
| CCC(C)NC(=O)NCc1cc2n(n1)CCCN(C1CCCCC1)C2 (configuration not stated) | -10.73 |
| Cc1ccc2c(c1)C1(CCNCC1)CN2C(=O)CN(C)C.O=C(O)C(F)(F)F.O=C(O)C(F)(F)F | 0.8832 |
